Readings of IC50 for the listed compounds
Target: Glucocorticoid receptor (Homo sapiens, UniProt P04150)
Sequence (P04150 whole entry): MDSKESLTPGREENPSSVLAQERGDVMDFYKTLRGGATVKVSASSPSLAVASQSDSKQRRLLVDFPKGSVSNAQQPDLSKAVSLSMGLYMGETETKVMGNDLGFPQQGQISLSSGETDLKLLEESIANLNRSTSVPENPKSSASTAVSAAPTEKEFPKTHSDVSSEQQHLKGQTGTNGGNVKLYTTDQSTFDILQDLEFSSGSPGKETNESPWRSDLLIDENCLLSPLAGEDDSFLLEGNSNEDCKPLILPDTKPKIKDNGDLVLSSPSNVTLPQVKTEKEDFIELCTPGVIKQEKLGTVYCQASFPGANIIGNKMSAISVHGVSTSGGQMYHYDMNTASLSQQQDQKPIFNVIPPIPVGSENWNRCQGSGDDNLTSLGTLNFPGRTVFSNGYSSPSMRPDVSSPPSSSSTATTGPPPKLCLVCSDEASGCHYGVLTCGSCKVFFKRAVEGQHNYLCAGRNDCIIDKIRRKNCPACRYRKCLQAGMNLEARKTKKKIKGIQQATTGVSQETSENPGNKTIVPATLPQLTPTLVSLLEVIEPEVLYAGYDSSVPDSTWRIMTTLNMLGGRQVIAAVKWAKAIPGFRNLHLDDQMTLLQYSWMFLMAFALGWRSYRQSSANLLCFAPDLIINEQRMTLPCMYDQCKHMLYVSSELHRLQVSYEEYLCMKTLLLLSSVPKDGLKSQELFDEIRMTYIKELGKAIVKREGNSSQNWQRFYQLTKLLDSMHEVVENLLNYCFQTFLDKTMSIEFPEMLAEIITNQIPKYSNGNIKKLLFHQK
Assay: Agonist activity at glucocorticoid receptor in HFF assessed as inhibition of IL-1-induced IL-6 production after 24 hrs

compound=Cc1cc(C)c(S(=O)(=O)N[C@@H](C)Cc2c[nH]c3ccccc23)c(C)c1 observed_result="> 2000 nM"

IC50 for Cc1cc(C)c(S(=O)(=O)NC(Cc2c[nH]c3c(C)cccc23)C(F)(F)F)c(C)c1 (configuration not stated) ?
> 10000 nM

IC50 for Nc1cc(Cl)cc(Cl)c1S(=O)(=O)NC(Cc1c[nH]c2ccccc12)C(F)(F)F (configuration not stated) ?
56 nM

IC50 for CC(C)(Cc1c[nH]c2ccccc12)NS(=O)(=O)c1c(N)cc(Cl)cc1Cl ?
> 2000 nM

IC50 for CC(Cc1c[nH]c2ccccc12)NS(=O)(=O)c1c(Cl)cc(Cl)cc1Cl (configuration not stated) ?
> 2000 nM

IC50 for Cc1cc(C)c(S(=O)(=O)NC(Cn2ccc3ncccc32)C(F)(F)F)c(C)c1 (configuration not stated) ?
> 2000 nM

IC50 for Cc1cc(C)c(S(=O)(=O)NC(Cc2c[nH]c3cc(C)ccc23)C(F)(F)F)c(C)c1 (configuration not stated) ?
> 2000 nM
